Let's look at some binders and their measured glycan array binding signal (z-score).
# system.name: Gal(a1-3)Gal(b1-3)GlcNAc(b1-6)GalNAc
# measurement.notes: glycan array binding signal (z-score within array); higher = stronger binding
# cond: glycan notation: IUPAC condensed, linker removed
Shown is part of a subset that was picked to be rich in the strongest signals.

{"binder": "Lb MiSSP8 (Laccaria bicolor) (protein) MYFHTLFACATLMLITTAHASPTVINSLDSRKADLNGDVEARHAADWRRDSDWRRDSDWRRDSDWRRDSD", "glycan array binding signal (z-score)": -0.806}
{"binder": "OGAA (protein) MVQKESQATLEERESELSSNPAASAGASLEPPAAPAPGEDNPAGAGGAAVAGAAGGARRFLCGVVEGFYGRPWVMEQRKELFRRLQKWELNTYLYAPKDDYKHRMFWREMYSVEEAEQLMTLISAAREYEIEFIYAISPGLDITFSNPKEVSTLKRKLDQVSQFGCRSFALLFADIDHNMCAADKEVFSSFAHAQVSITNEIYQYLGEPETFLFCPTEYCGTFCYPNVSQSPYLRTVGEKLLPGIEVLWTGPKVVSKEIPVESIEEVSKIIKRAPVIWDNIHANDYDQKRLFLGPYKGRSTELIPRLKGVLTNPNCEFEANYVAIHTLATWYKSNMNGVRKDVVMTDSEDSTVSIQIKLENEGSDEDIETDVLYSPQMALKLALTEWLQEFGVPHQY", "glycan array binding signal (z-score)": -0.107}
{"binder": "HFR-3 (Triticum aestivum) (protein) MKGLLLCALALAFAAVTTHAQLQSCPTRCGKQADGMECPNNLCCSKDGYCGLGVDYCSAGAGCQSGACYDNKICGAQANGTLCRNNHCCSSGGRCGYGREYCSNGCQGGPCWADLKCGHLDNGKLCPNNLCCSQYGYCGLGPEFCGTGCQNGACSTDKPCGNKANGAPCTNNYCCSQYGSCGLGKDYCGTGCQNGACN", "glycan array binding signal (z-score)": -0.577}
